Hey, just so you know, these numbers are from ChEMBL document CHEMBL1201862.

Tested on: HCT-116
Test: NCI tumour cell line growth inhibition, 48 h
Activity calls are given as the source filed them. No stated cut-off is given here; in the data, active = GI50 up to about 1.1 µM and inactive = higher.
Catalogue of GI50 values

Worked set:
{"columns": ["Molecule", "Reported Measurement"],
 "data": [
  ["O=C(CNc1ccc(Cl)cc1Cl)Nn1c(-c2ccccc2)nc2ccccc2c1=O", "16.7 µM (inactive)"],
  ["COC(=O)/C(=C1\\OC(=O)C(c2ccc(Cl)cc2)=C1O)c1ccc(Cl)cc1", "19.8 µM (inactive)"],
  ["CC(C)c1cccc(C(=O)NCCN(C)C)c1[N+](=O)[O-]", "> 100 µM (inactive)"],
  ["CC(C)=CC[C@]12CCN(C)[C@H]1N(S(=O)(=O)c1ccccc1)c1ccccc12", "> 44.6 µM (inactive)"],
  ["CCOC(=O)CNc1nnnn1C1OC(CO)C(O)C1O (stereo not given)", "> 100 µM (inactive)"]
]}

Fill in GI50 for record Cn1c(=O)c2c(nc(N)n2C2OC(CO)C(O)C2O)n(C)c1=O (stereo not given)
> 100 µM (inactive)

Provide only the value of recorded GI50 for C[C@]12CC[C@H](O)CC1=CC[C@@H]1[C@@H]2CC[C@]2(C)C(=N/N)/C(=N\O)C[C@@H]12
43.4 µM (inactive)

Entry O=C1C=CC(=O)c2c1ccc1c3ccccc3n(-c3cccc([N+](=O)[O-])c3)c21 needs its GI50 filled in; supply it.
1.92 µM (inactive)

Read off the recorded GI50 for CCCCCCCCCCCCCCCC(=O)OCC1OC(n2ccc(N)nc2=O)C(O)C1O (stereo not given)
2.22 µM (inactive)

Given the molecule CCOC(=O)C(=O)Nc1nc2c(OCC)cccc2s1 , write its reported GI50.
> 100 µM (inactive)

* * *

System: DMS-114
Assay: NCI tumour cell line growth inhibition, 48 h
Calls of active or inactive are those of the source. Rule as the data show it: active = GI50 up to about 1.1 µM and inactive = higher.
As shown below, each of these compounds has a reported GI50 value.

Check out these entries, answers already filled in.
{"columns": ["Compound", "Observation Type", "Reported Measurement"],
 "data": [
  ["CN(C)CCN(C)C(=O)c1cccc2cccc(C(=O)O)c12", "GI50", "> 100 µM (inactive)"],
  ["N#Cc1ccccc1Sc1ccccc1N", "GI50", "49.1 µM (inactive)"],
  ["O=C(CCc1nnc2s/c(=C\\c3ccc([N+](=O)[O-])cc3)c(=O)n12)Nc1ccc(Cl)c(Cl)c1", "GI50", "17.3 µM (inactive)"],
  ["CC(C)(C)N/N=C(\\Cc1occc(=O)c1O)C(=O)Nc1ccc([N+](=O)[O-])cc1[N+](=O)[O-]", "GI50", "> 100 µM (inactive)"],
  ["O=C(CCBr)N1CCN(C(=O)CCBr)CC1 [PIPOBROMAN]", "GI50", "50.6 µM (inactive)"],
  ["CC(C)(CN1CCCCC1)C(=O)/C=C/c1ccccc1", "GI50", "14.4 µM (inactive)"]
]}

Quote GI50 reported for CCCCCCCCSC(SCCCCCCCC)=C1C(=O)N(c2ccccc2)N=C1C please.
28.4 µM (inactive)

Note GI50 for the compound shown: O=C(C#Cc1cnc(O)nc1O)c1ccccc1Cl
21.9 µM (inactive)

Return GI50 for the following compound: CC(=O)O[C@H]1CCN2C(=O)C=CC(OCc3ccccc3)C12 (stereo not given in full)
> 100 µM (inactive)

* * *

Tested on: SW-620
Assay: NCI tumour cell line growth inhibition, 48 h
Activity calls are given as the source filed them. Rule as the data show it: active = GI50 up to about 1.1 µM and inactive = higher.
// allowed return values: active, inactive

Examples from the recorded data:
{"columns": ["Compound", "Label"],
 "data": [
  ["CN(C)CC(O)c1ccc(Cl)c2ccccc12 (configuration not stated)", "inactive"],
  ["CC(C)OP(=O)(OC(C)C)/C(=N/Nc1ccc([N+](=O)[O-])cc1)NNC(=O)c1ccccc1", "inactive"],
  ["O=c1cc(CC(O)(C(F)(F)Cl)C(F)(F)Cl)[nH]n1-c1ccccc1", "inactive"]
]}

GET /call?item= Oc1cc(N2CCCC2)ccc1/C=N/N1C(=S)N(c2ccccc2)C(=N\c2ccccc2)/C1=N/c1ccccc1 returns the recorded outcome of this test.
inactive

In this assay, the call recorded for CCOC(=O)/C(=C/c1ccc(OC)cc1)N(CC)CC was what?
inactive

Would you mind telling me which call this test gave CC1=CC(C)(C)N=C2SC(c3ccc(Cl)cc3)=NN12 ?
inactive

What was the test verdict on CSCCC(NC(=O)C(Cc1c[nH]c2ccccc12)NC(=O)CCNC(=O)OC(C)(C)C)C(=O)NC(CC(=O)O)C(=O)NC(Cc1ccccc1)C(N)=O (configuration not stated) ?
inactive

Field: outcome | Entry: CC(C)CC/N=c1/cc2n(-c3ccc(Cl)cc3)c3ccccc3nc-2cc1Nc1ccc(Cl)cc1
inactive

Tell me the recorded outcome of this test for CC(C)(C)c1cc(C=C(C#N)C#N)cc(C(C)(C)C)c1O .
active

# fetch the recorded call for CCOc1ccc(NC(=O)C(=O)Nn2c(N)nnc2N)cc1 here
inactive

For Cc1cc(-c2nc3cc(F)ccc3s2)ccc1N , what call appears in the results of this test?
inactive

* * *

# GI50 per record follows
Tested on: 786-0
Assay: NCI tumour cell line growth inhibition, 48 h
Activity calls are given as the source filed them. No stated cut-off is given here; in the data, active = GI50 up to about 1.1 µM and inactive = higher.

Check out these entries, answers already filled in.
{"columns": ["Compound", "GI50"],
 "data": [
  ["O=C1C(Sc2ccc3ccccc3c2)=C(Sc2ccc3ccccc3c2)C(=O)c2ccccc21", "12.7 µM (inactive)"],
  ["CC/C(=C\\c1ccc(OC)cc1)c1ccc(OC)cc1", "94.2 µM (inactive)"],
  ["O=C1NC(O)c2cc3ccccc3cc2O1 (stereo unspecified)", "> 100 µM (inactive)"]
]}

Supply GI50 measured with 786-0 for COC(=O)/C(=C1\OC(=O)C(c2ccc(Cl)cc2)=C1O)c1ccc(Cl)cc1 .
36.1 µM (inactive)

// fetch GI50 for NNC(=O)c1nn[nH]c1C(=O)NN ; system: 786-0
15.5 µM (inactive)

Fill in: GI50 on 786-0, entry CCOC(=O)CCn1[nH]c(=O)c(Cl)c(Cl)c1=O
> 100 µM (inactive)

* * *

Test system: HL-60
Assay: NCI tumour cell line growth inhibition, 48 h
Calls of active or inactive are those of the source. No stated cut-off is given here; in the data, active = GI50 up to about 1.1 µM and inactive = higher.
Observation Type: GI50

Look over these answered cases.
{"columns": ["Compound", "Reported Measurement"],
 "data": [
  ["N#CCCN(C(=O)Nc1ccc(NC(=O)N(CCC#N)c2ccccc2)cc1)c1ccccc1", "> 100 µM (inactive)"],
  ["N#CC(/C(=N/NC(=O)C(=O)NN)C(=O)Nc1nc([N+](=O)[O-])cs1)c1ccc(Cl)cc1 (configuration not stated)", "> 100 µM (inactive)"],
  ["O=C1NC2(CCCC2)C(=O)C12CCCC2", "> 100 µM (inactive)"]
]}

# input for lookup
Specify reported GI50 for the compound shown: Cc1nc2ccc(Cl)cc2c2c1CCN2c1ccc(F)cc1
17.1 µM (inactive)

* * *

System: HCT-116
Test: NCI tumour cell line growth inhibition, 48 h
The source made the active and inactive calls. Rule as the data show it: active = GI50 up to about 1.1 µM and inactive = higher.
Parameter: GI50. Scope: all listed entries.

Illustrative cases are given below, each with its answer.
{"columns": ["Compound", "Reported Measurement"],
 "data": [
  ["O=C1C(Sc2ccc3ccccc3c2)=C(Sc2ccc3ccccc3c2)C(=O)c2ccccc21", "7.59 µM (inactive)"],
  ["Cc1nc2n(c1/C=C1/C(=O)Nc3ccccc31)CCS2", "33.6 µM (inactive)"],
  ["c1ccc(C2=Nc3nc4ccccc4n3C(c3ccccc3)C2)cc1 (stereo not given)", "> 100 µM (inactive)"],
  ["N#CCCN(C(=O)Nc1ccc(NC(=O)N(CCC#N)c2ccccc2)cc1)c1ccccc1", "> 100 µM (inactive)"],
  ["CCC(C)(C)NC1=C(NC(C)=O)C(=O)c2ccccc2C1=O", "17.7 µM (inactive)"],
  ["CC(C)NC(NC(C)C)=C(S(=O)(=O)C(F)(F)C(F)(F)C(F)(F)C(F)(F)F)S(=O)(=O)C(F)(F)C(F)(F)C(F)(F)C(F)(F)F", "> 100 µM (inactive)"],
  ["OCC1CCCCN1Cc1nc2cc(Cl)ccc2[nH]1 (stereo not given)", "> 100 µM (inactive)"],
  ["COc1c2ccoc2c(S(=O)(=O)Nc2ccc(Cl)cc2)c2oc(C)cc(=O)c12", "36 µM (inactive)"],
  ["CCCCC1(O)CC2CC1C(C)C2(C)C (stereo not given)", "> 100 µM (inactive)"]
]}

Let us move to another entry and its GI50.
Answer with reported GI50 of CC(C)OP(=O)(OC(C)C)/C(=N/Nc1ccc([N+](=O)[O-])cc1)NNC(=O)c1ccccc1
34.2 µM (inactive)

* * *

Tested on: DMS-273
Experiment: NCI tumour cell line growth inhibition, 48 h
Activity calls are given as the source filed them. Cut-off read from the data, not from the text of the source: active = GI50 up to about 1.1 µM and inactive = higher.
The categories you may choose from are 1 (active), 0 (inactive)

Solved cases (4 shown):
{"columns": ["Molecule", "Label"],
 "data": [
  ["CC(C)(C)c1cc(C=C(C#N)C#N)cc(C(C)(C)C)c1O", 1],
  ["Cc1cc(N(CC(C)Br)CC(C)Br)ccc1/N=N/c1ccccc1C(=O)O (stereo not given)", 0],
  ["CC1CCC(C(C)C)C(O[C@@H]2OC(=O)C[C@@H]2Sc2ccccc2)C1 (stereo not given in full)", 0],
  ["C#CCN(C)C(=O)N(CC#C)N=O", 0]
]}

Assay result, entry Cc1nnc2n1N=C(c1ccc(-c3ccc([N+](=O)[O-])cc3)o1)CS2 — outcome?
0
